Biological target: T1, mouse folate receptor alpha (mFRα), recombinant protein (mouse, UniProt P35846 25-232)
T1 construct: Bought recombinant proteins (e.g. biotinylated, Acro Biosystems FO1-M82E9); also called mFOLR1; Ms FOLR1
T1 sequence (P35846 25-232 limits assumed): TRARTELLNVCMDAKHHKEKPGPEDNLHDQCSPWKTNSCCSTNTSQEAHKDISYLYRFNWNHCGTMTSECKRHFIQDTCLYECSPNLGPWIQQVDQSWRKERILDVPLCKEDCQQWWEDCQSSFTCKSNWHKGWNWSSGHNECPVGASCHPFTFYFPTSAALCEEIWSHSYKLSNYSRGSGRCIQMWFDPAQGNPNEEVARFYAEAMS
Assay: BLI, Avi-biotinylated FRα
Procedure: Purified VHHs ^{∘}100 nM) were analysed for binding to avi-tagged biotinylated FRα protein captured on streptavidin-biosensors via BLI. Off-rates of purified variants were determined to human, mouse, and cynomolgus FRα in BLI. In addition, binding of the affinity optimised variants to cell-expressed human FRα on HeLa cells was determined by flow cytometry ^{∘}FIG. 10 B).
Below: a set of entries, each annotated with reported koff.
reported.metric: koff (s⁻¹)

binder	reported.metric	observed
P01500044: P01500001(S30I, D72E, N73G)-FLAG3-HIS6 (VHH, also called P0150044) VHH: EVQLVESGGGLVQPGGSLRLSCAASGSGFIGMIMGWYRQAPGKQRELVATVTSHGTTNYADSVKGRFTISREGAKNTVYLQMNSLRPEDTAVYYCNAHFPGIYWGKGTLVTVSS	koff	0.000126
P01500052: P01500001(V51R, D72E)-FLAG3-HIS6 (VHH, also called P0150052) VHH: EVQLVESGGGLVQPGGSLRLSCAASGSGFSGMIMGWYRQAPGKQRELVATRTSHGTTNYADSVKGRFTISRENAKNTVYLQMNSLRPEDTAVYYCNAHFPGIYWGKGTLVTVSS	koff	0.000246
P01500048: P01500001(S30I, D72P)-FLAG3-HIS6 (VHH, also called P0150048) VHH: EVQLVESGGGLVQPGGSLRLSCAASGSGFIGMIMGWYRQAPGKQRELVATVTSHGTTNYADSVKGRFTISRPNAKNTVYLQMNSLRPEDTAVYYCNAHFPGIYWGKGTLVTVSS	koff	0.000142
P01500050: P01500001(G28T, D72P)-FLAG3-HIS6 (VHH, also called P0150050) VHH: EVQLVESGGGLVQPGGSLRLSCAASGSTFSGMIMGWYRQAPGKQRELVATVTSHGTTNYADSVKGRFTISRPNAKNTVYLQMNSLRPEDTAVYYCNAHFPGIYWGKGTLVTVSS	koff	0.000168
P01500057: P01500001(G26E, G28P, D72E, N73G)-FLAG3-HIS6 (VHH, also called P0150057) VHH: EVQLVESGGGLVQPGGSLRLSCAASESPFSGMIMGWYRQAPGKQRELVATVTSHGTTNYADSVKGRFTISREGAKNTVYLQMNSLRPEDTAVYYCNAHFPGIYWGKGTLVTVSS	koff	2.11e-05
P01500058: P01500001(G26E, G28P)-FLAG3-HIS6 (VHH, also called P0150058) VHH: EVQLVESGGGLVQPGGSLRLSCAASESPFSGMIMGWYRQAPGKQRELVATVTSHGTTNYADSVKGRFTISRDNAKNTVYLQMNSLRPEDTAVYYCNAHFPGIYWGKGTLVTVSS	koff	0.000484
P01500041: P01500001(D72P, N73G)-FLAG3-HIS6 (VHH, also called P0150041) VHH: EVQLVESGGGLVQPGGSLRLSCAASGSGFSGMIMGWYRQAPGKQRELVATVTSHGTTNYADSVKGRFTISRPGAKNTVYLQMNSLRPEDTAVYYCNAHFPGIYWGKGTLVTVSS	koff	0.000191
P01500047: P01500001(G26E, G28T, S30I, I33L)-FLAG3-HIS6 (VHH, also called P0150047) VHH: EVQLVESGGGLVQPGGSLRLSCAASESTFIGMLMGWYRQAPGKQRELVATVTSHGTTNYADSVKGRFTISRDNAKNTVYLQMNSLRPEDTAVYYCNAHFPGIYWGKGTLVTVSS	koff	0.000219
